TEST_TARGET: Prostaglandin E synthase (Homo sapiens, UniProt O14684)
Sequence (O14684 whole entry): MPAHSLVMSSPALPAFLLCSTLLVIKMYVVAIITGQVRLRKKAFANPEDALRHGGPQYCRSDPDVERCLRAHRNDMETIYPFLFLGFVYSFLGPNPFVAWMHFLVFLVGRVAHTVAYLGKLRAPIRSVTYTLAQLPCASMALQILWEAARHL
ASSAY_DETAILS: Inhibition of full-length microsomal PGES-1 (unknown origin) expressed in Escherichia coli Rosetta(DE3) using PGH2 as substrate assessed as inhibition of PGH2 conversion to PGE2 incubated 15 mins prior to substrate addition measured after 1 min by EIA
ATTRIBUTE_MEASURED: IC50 (nM)
Give your result in nM as a bare value.

# count of solved cases: 2
Cc1ccc([N+](=O)[O-])cc1NC(=O)CSc1nnc(-c2ccccc2C)n1C ... 54500
COc1ccc(-c2nnc(SCC(=O)c3ccc4c(c3)Cc3ccccc3-4)nc2-c2ccc(OC)cc2)cc1 ... 4

Then this molecule:
Request body: readout IC50, system Prostaglandin E synthase (Homo sapiens, UniProt O14684), query Cc1ccc(-c2nnc(SCC(=O)c3c[nH]c4ccccc34)nc2-c2ccc(C)cc2)cc1 . Return the value.
480

* * *

The entries below are paired with their reported pIC50.
TEST_TARGET: Prostaglandin E synthase (Homo sapiens, UniProt O14684)
ASSAY_DETAILS: Inhibition of full-length microsomal PGES-1 (unknown origin) expressed in Escherichia coli Rosetta(DE3) using PGH2 as substrate assessed as inhibition of PGH2 conversion to PGE2 incubated 15 mins prior to substrate addition measured after 1 min by EIA
Note: pIC50 values are expressed as the negative base-10 logarithm of concentration in M.

May I ask what pIC50 has been recorded for COc1ccc(CN2C(=O)/C(=C/c3ccc(OCc4ccc([N+](=O)[O-])cc4)c(Br)c3)S/C2=N\c2ccccc2)cc1 ?
7.42

What value of pIC50 has been reported for the following compound? O=C1COc2ccc(C(=O)CSc3nnc(-c4ccccc4)c(-c4ccccc4)n3)cc2N1
6.54

// query pIC50 value for entry COc1ccc(C(=O)CSc2nnc(-c3ccco3)c(-c3ccco3)n2)cc1
5.30

Tell me the measured pIC50 of O=C(O)CN1C(=O)/C(=C2/C(=O)N(CC(=O)O)c3ccccc32)SC1=S , please.
8.74

Which measured pIC50 value corresponds to C=CCn1c(SCC(=O)c2ccc3c(c2)Cc2ccccc2-3)nnc1-c1ccc(OC)cc1 ?
6.04

# lookup: pIC50 of Cc1ccc([N+](=O)[O-])cc1NC(=O)CSc1nnc(Cc2ccccc2)n1C
6.10

I am curious: what pIC50 value has been reported for Cc1cccc(C)c1NCc1nnc(SCc2ccc(Cl)cc2)n1-c1ccccc1 ?
4.71

* * *

pIC50 listing for selected compounds.
TEST_TARGET: Prostaglandin E synthase (Homo sapiens, UniProt O14684)
ASSAY_DETAILS: Inhibition of full-length microsomal PGES-1 (unknown origin) expressed in Escherichia coli Rosetta(DE3) using PGH2 as substrate assessed as inhibition of PGH2 conversion to PGE2 incubated 15 mins prior to substrate addition measured after 1 min by EIA
// pIC50 is dimensionless: -log10 of concentration (M)

Below: 3 compounds and their reported pIC50.
Cc1ccc(C(=O)O)cc1-c1ccc(/C=C2\SC(=O)N(CC(=O)Nc3ccccc3)C2=O)o1 ... 5.92
COc1ccc(OC)c(NC(=O)CSc2nnc(CNc3c(C)cccc3C)n2C)c1 ... 6.03
Cn1c(=O)c(/C(=N/Nc2ccc([N+](=O)[O-])cc2[N+](=O)[O-])c2nnn[nH]2)c(O)c2ccccc21 ... 5.77

# input compound: COc1ccc(-c2nnc(SCC(=O)Nc3ccc(Cl)cc3)nc2-c2ccc(OC)cc2)cc1 ; wanted: its pIC50
5.51

Entry under review: Cc1ccc([N+](=O)[O-])cc1NC(=O)CSc1nnc(CNc2c(C)cccc2C)n1C . Reported pIC50?
8.03

* * *

TEST_TARGET: Prostaglandin E synthase (Homo sapiens)
ASSAY_DETAILS: Inhibition of full-length microsomal PGES-1 (unknown origin) expressed in Escherichia coli Rosetta(DE3) using PGH2 as substrate assessed as inhibition of PGH2 conversion to PGE2 incubated 15 mins prior to substrate addition measured after 1 min by EIA
Listing of entries alongside the reported IC50.
Answer with a number only, understood to be in nM.

Record excerpt, results attached:
Cc1ccc2[nH]c3c(c2c1)CCC/C3=N\N=C1/CCCc2c1[nH]c1ccc(C)cc21 ... 5000
Cc1[nH]c2ccccc2c1C(=O)C(C)Sc1nnc(-c2ccccc2)c(-c2ccccc2)n1 (configuration not stated) ... 2100

Note: attention shifts to another entry.
I'd like to know its IC50. The molecule in question is COc1cc(NC(=O)c2nn3c(C(F)(F)F)cc(-c4ccc(Br)cc4)nc3c2Cl)cc([N+](=O)[O-])c1
9.7

* * *

TEST_TARGET: Prostaglandin E synthase (Homo sapiens, UniProt O14684)
ASSAY_DETAILS: Inhibition of full-length microsomal PGES-1 (unknown origin) expressed in Escherichia coli Rosetta(DE3) using PGH2 as substrate assessed as inhibition of PGH2 conversion to PGE2 incubated 15 mins prior to substrate addition measured after 1 min by EIA
ATTRIBUTE_MEASURED: IC50 (µM)
Dear colleague, please return just the value in µM, with no unit written.

Solved entries (count: 2):
Cc1nc2sc3c(c2c(=O)n1/N=C/c1cc([N+](=O)[O-])cc([N+](=O)[O-])c1O)CCCC3 ... 1.8
COc1ccc(C(=O)CSc2nnc(-c3ccc(OC)cc3)c(-c3ccc(OC)cc3)n2)cc1 ... 1

// next entry
Find IC50 (Prostaglandin E synthase (Homo sapiens, UniProt O14684)) for the entry O=C(N/N=C/c1ccc([N+](=O)[O-])cc1)c1cc(OCc2ccccc2)c(OCc2ccccc2)c(OCc2ccccc2)c1
0.1
